assay: Polymorphic stability when maintained at room temperature; assay type: physicochemical
quantity_name: polymorphic stability (conversion to Form A)

| molecule | reported_value |
| --- | --- |
| CN(C)CCc1c[nH]c2ccc(C[C@H]3COC(=O)N3)cc12 [Form J] | do not convert to Form A |
| CN(C)CCc1c[nH]c2ccc(C[C@H]3COC(=O)N3)cc12 [Form S] | do not convert to Form A |
| CN(C)CCc1c[nH]c2ccc(C[C@H]3COC(=O)N3)cc12 [Form K] | do not convert to Form A |
| CN(C)CCc1c[nH]c2ccc(C[C@H]3COC(=O)N3)cc12 [Form H] | do not convert to Form A |
| CN(C)CCc1c[nH]c2ccc(C[C@H]3COC(=O)N3)cc12 [Form D] | do not convert to Form A |
| CN(C)CCc1c[nH]c2ccc(C[C@H]3COC(=O)N3)cc12 [Form P] | do not convert to Form A |
| CN(C)CCc1c[nH]c2ccc(C[C@H]3COC(=O)N3)cc12 [Form I] | do not convert to Form A |
| CN(C)CCc1c[nH]c2ccc(C[C@H]3COC(=O)N3)cc12 [Form G] | do not convert to Form A |

---

assay: Transformation by slurry in other solvents (n-hexane, toluene, water) and drying, form determined by XRD; assay type: physicochemical; conditions: n-Hexane, dried 63 °C under reduced pressure
quantity_name: XRD sample (form after treatment)

| compound | reported_value |
| --- | --- |
| CN(C)CCc1c[nH]c2ccc(C[C@H]3COC(=O)N3)cc12 [Form K] | Form A |
| CN(C)CCc1c[nH]c2ccc(C[C@H]3COC(=O)N3)cc12 [Form N] | Form A |
| CN(C)CCc1c[nH]c2ccc(C[C@H]3COC(=O)N3)cc12 [Form I] | Form A |
